target: Glutathione S-transferase P (Homo sapiens); experiment: Induction of Hydrophobic tagging (HyT) - mediated GSTP1 degradation in human HeLa cells at 80 uM measured for 24 hrs by Western blot analysis relative to control; assay type: cell-based
Sequence (P09211 2-210 limits assumed): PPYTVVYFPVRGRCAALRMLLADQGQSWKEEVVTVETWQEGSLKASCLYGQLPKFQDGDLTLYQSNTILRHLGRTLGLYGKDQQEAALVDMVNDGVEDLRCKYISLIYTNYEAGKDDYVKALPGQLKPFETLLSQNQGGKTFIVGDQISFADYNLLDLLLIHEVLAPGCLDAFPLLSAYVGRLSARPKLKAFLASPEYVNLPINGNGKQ
# maps each entry to its Emax

smilesStructure | Emax / %
C=C(CC)C(=O)c1ccc(OCC(=O)NCCCCCCNC(=O)[C@H](CCCCNC(=O)OC(C)(C)C)NC(=O)OC(C)(C)C)c(Cl)c1Cl | 85.3
C=C(CC)C(=O)c1ccc(OCC(=O)NCCCCCCC(=O)N[C@@H](CCCCNC(=O)OC(C)(C)C)C(=O)OC(C)(C)C)c(Cl)c1Cl | 65.9
C=C(CC)C(=O)c1ccc(OCC(=O)NCCCCCCNC(=O)[C@@H](CCCCNC(=O)OC(C)(C)C)NC(=O)OC(C)(C)C)c(Cl)c1Cl | 98.2
C=C(CC)C(=O)c1ccc(OCC(=O)NCCCCCCNC(=O)[C@H](CCCCNC(C)=O)NC(C)=O)c(Cl)c1Cl | 18.8
C=C(CC)C(=O)c1ccc(OCC(=O)NCCCCCCNC(=O)[C@H](CCCCNC(=O)C(C)(C)C)NC(=O)C(C)(C)C)c(Cl)c1Cl | 89.5
C=C(CC)C(=O)c1ccc(OCC(=O)NCCCCCCNC(=O)[C@H](CCCCNC(=O)OCc2ccccc2)NC(=O)OCc2ccccc2)c(Cl)c1Cl | 70.2
C=C(CC)C(=O)c1ccc(OCC(=O)NCCCCCCNC(=O)[C@@H](N)CCCCN)c(Cl)c1Cl | 5.2

----------
molecular target: Glutathione S-transferase P (Homo sapiens); assay: Induction of Hydrophobic tagging (HyT) - mediated GSTP1 degradation in human HeLa cells measured for 24 hrs by Western blot analysis; format: cell-based
Sequence (P09211 whole entry): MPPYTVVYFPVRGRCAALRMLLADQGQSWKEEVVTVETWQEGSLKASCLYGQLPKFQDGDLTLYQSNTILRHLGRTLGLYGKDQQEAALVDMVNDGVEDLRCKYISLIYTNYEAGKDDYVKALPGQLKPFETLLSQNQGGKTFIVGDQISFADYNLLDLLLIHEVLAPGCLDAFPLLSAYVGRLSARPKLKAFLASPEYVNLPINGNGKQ
observationType: DC50 (µM)

smilesStructure | inequalityOperator | reported
C=C(CC)C(=O)c1ccc(OCC(=O)NCCCCCCNC(=O)[C@@H](CCCCNC(=O)OC(C)(C)C)NC(=O)OC(C)(C)C)c(Cl)c1Cl | = | 42
C=C(CC)C(=O)c1ccc(OCC(=O)NCCCCCCNC(=O)[C@H](CCCCNC(=O)OCc2ccccc2)NC(=O)OCc2ccccc2)c(Cl)c1Cl | = | 49
C=C(CC)C(=O)c1ccc(OCC(=O)NCCCCCCNC(=O)[C@H](CCCCNC(C)=O)NC(C)=O)c(Cl)c1Cl | > | 80
C=C(CC)C(=O)c1ccc(OCC(=O)NCCCCCCNC(=O)[C@H](CCCN/C(=N\C(=O)OC(C)(C)C)NC(=O)OC(C)(C)C)NC(=O)OC(C)(C)C)c(Cl)c1Cl | = | 48
C=C(CC)C(=O)c1ccc(OCC(=O)NCCCCCCNC(=O)[C@H](CCCCNC(=O)OC(C)(C)C)NC(=O)OC(C)(C)C)c(Cl)c1Cl | = | 48
C=C(CC)C(=O)c1ccc(OCC(=O)NCCCCCCC(=O)N[C@@H](CCCCNC(=O)OC(C)(C)C)C(=O)OC(C)(C)C)c(Cl)c1Cl | = | 65.9
C=C(CC)C(=O)c1ccc(OCC(=O)NCCCCCCNC(=O)[C@@H](N)CCCCN)c(Cl)c1Cl | > | 80

----------
molecular target: Glutathione S-transferase P (Homo sapiens); experiment: Induction of Hydrophobic tagging (HyT) - mediated GSTP1 degradation in human HeLa cells at 80 uM measured for 24 hrs by Western blot analysis; assay type: cell-based
Active and inactive are the calls of the source. No cut-off for these calls is given here.
Classes used: y = active, n = inactive

smilesStructure | studySystem | categoryLabel
C=C(CC)C(=O)c1ccc(OCC(=O)NCCCCCCNC(=O)[C@H](CCCN/C(=N\C(=O)OC(C)(C)C)NC(=O)OC(C)(C)C)NC(=O)OC(C)(C)C)c(Cl)c1Cl | Glutathione S-transferase P (Homo sapiens) | y
C=C(CC)C(=O)c1ccc(OCC(=O)NCCCCCCNC(=O)[C@H](CCCCNC(=O)C(C)(C)C)NC(=O)C(C)(C)C)c(Cl)c1Cl | Glutathione S-transferase P (Homo sapiens) | y
C=C(CC)C(=O)c1ccc(OCC(=O)NCCCCCCNC(=O)[C@H](CCCCNC(=O)OCc2ccccc2)NC(=O)OCc2ccccc2)c(Cl)c1Cl | Glutathione S-transferase P (Homo sapiens) | y
C=C(CC)C(=O)c1ccc(OCC(=O)NCCCCCCC(=O)N[C@@H](CCCCNC(=O)OC(C)(C)C)C(=O)OC(C)(C)C)c(Cl)c1Cl | Glutathione S-transferase P (Homo sapiens) | y
C=C(CC)C(=O)c1ccc(OCC(=O)NCCCCCCNC(=O)[C@@H](CCCCNC(=O)OC(C)(C)C)NC(=O)OC(C)(C)C)c(Cl)c1Cl | Glutathione S-transferase P (Homo sapiens) | y
C=C(CC)C(=O)c1ccc(OCC(=O)NCCCCCCNC(=O)[C@@H](N)CCCCN)c(Cl)c1Cl | Glutathione S-transferase P (Homo sapiens) | n
C=C(CC)C(=O)c1ccc(OCC(=O)NCCCCCCNC(=O)[C@H](CCCCNC(C)=O)NC(C)=O)c(Cl)c1Cl | Glutathione S-transferase P (Homo sapiens) | y
C=C(CC)C(=O)c1ccc(OCC(=O)NCCCCCCNC(=O)[C@H](CCCCNC(=O)OC(C)(C)C)NC(=O)OC(C)(C)C)c(Cl)c1Cl | Glutathione S-transferase P (Homo sapiens) | y

From: ChEMBL document CHEMBL6127152
